FYI, the data here is from patent US20230192819A1.

MEASURED_ON: S1 variant B.1.1.7: UK (Acro) spike protein (SARS-CoV-2, UniProt P0DTC2 16-1213)
PROTOCOL_SUMMARY: SPR (Carterra LSA); […]; 1:1 model; […]
METRIC_NAME: koff (s⁻¹)
The answer is to be given in s⁻¹; state only the numeric part.

{"columns": ["BINDER", "VAL"],
 "data": [
  ["Antibody 1-16 (Fc fusion) EVQLVESGGGLVQPGGSLRLSCAASGRTYAMGWFRQAPGKERELVAEITAGGSTYYADSVKGRFTISADNSKNTAYLQMNSLKQEDTAVYYCAVDGPFGWGQGTLVTVSS", 0.00037],
  ["Antibody 1-15 (Fc fusion) EVQLVESGGGLVQPGGSLRLSCAASGGIFSDMFMGWFRQAPGKEREFVATIDWSGDTAFYADSVKGRFTISADNSKNTAYLQMNSLKPEDTAVYYCAVDLSGDAVYDWGQGTLVTVSS", 0.00024],
  ["Antibody 1-1 (Fc fusion) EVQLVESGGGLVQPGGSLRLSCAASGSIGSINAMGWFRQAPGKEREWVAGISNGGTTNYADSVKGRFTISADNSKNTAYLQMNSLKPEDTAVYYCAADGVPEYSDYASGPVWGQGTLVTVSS", 0.00052]
]}

Q: Consider the binder Antibody 1-7 (Fc fusion) EVQLVESGGGLVQPGGSLRLSCAASGGTFSSIGMGWFRQAPGKEREFVAAISWDGGATAYADSVKGRFTISADNSKNTVYLQMNSLKPEDTAVYYCAKEDVGKPFDWGQGTLVTVSS and give its measured koff.
A: 0.0004
